Parameter: inhibition. Scope: all listed entries.
Target: 2-amino-4-hydroxy-6-hydroxymethyldihydropteridine pyrophosphokinase (Escherichia coli (strain K12)) (UniProt P26281)
Sequence (P26281 whole entry): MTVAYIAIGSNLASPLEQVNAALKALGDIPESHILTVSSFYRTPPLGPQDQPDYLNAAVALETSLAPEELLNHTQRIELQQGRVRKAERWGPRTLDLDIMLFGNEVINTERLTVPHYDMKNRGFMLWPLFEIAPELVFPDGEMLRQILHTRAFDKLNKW
Assay: Inhibition of GST-tagged Escherichia coli HPPK expressed in Escherichia coli using 6-hydroxymethyl-7,8-dihydropterin hydrochloride as substrate at 250 uM after 20 mins by luminescence assay
The response must be a number in % with no trailing unit.

Nc1nc2nc(SCC(=O)c3ccc(F)cc3)[nH]c2c(=O)[nH]1	73
N#Cc1ccc(C(=O)CSc2nc3nc(N)[nH]c(=O)c3[nH]2)cc1	68
Nc1nc2nc(SCC(=O)c3ccc(O)cc3)[nH]c2c(=O)[nH]1	77
Cc1cccc(C(=O)CSc2nc3nc(N)[nH]c(=O)c3[nH]2)c1	77
COc1ccc(C(=O)CSc2nc3nc(N)[nH]c(=O)c3[nH]2)cc1	74

Below: the item to evaluate.
Task: I'd like to know its inhibition. The compound in question is "Nc1nc(O)c2nc(SCC(=O)N3CCOCC3)[nH]c2n1"
Result: 6
